Biological target: T1, Macaca fascicularis IL2Rγ extracellular domain expressed with a C-terminal myc-myc-hexahistidine tag (Macaca fascicularis)
T1 construct: also called mfIL-2Rg-MMH; mfIL-2RG-MMH
T1 chain: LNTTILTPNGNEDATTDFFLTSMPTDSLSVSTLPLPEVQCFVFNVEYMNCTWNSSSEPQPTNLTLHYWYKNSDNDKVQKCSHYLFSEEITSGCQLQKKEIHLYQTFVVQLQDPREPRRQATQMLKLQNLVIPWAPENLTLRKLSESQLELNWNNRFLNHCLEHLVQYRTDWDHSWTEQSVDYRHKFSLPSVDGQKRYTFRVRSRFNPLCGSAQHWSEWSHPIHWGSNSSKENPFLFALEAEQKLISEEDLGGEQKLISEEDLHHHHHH
Assay: SPR Biacore 4000, mAb captured by anti-hFc, 37C, dissociation in PBS-T pH 6.0
koff overview

# binder, unit-text, koff
records = [
    ("H4H12863P (antibody, human IgG4 S228P, kappa, V domains shown, anti-IL2Rγ monoclonal antibody expressed with human IgG4 Fc) VH: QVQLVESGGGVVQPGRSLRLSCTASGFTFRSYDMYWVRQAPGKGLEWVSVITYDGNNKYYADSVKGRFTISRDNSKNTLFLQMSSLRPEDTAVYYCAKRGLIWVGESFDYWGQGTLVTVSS VL: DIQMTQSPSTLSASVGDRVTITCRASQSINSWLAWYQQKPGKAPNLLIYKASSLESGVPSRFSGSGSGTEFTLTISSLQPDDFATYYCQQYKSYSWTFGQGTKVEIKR", "s⁻¹", 0.00208),
    ("H4H12884P (antibody, human IgG4 S228P, kappa, V domains shown, anti-IL2Rγ monoclonal antibody expressed with human IgG4 Fc) VH: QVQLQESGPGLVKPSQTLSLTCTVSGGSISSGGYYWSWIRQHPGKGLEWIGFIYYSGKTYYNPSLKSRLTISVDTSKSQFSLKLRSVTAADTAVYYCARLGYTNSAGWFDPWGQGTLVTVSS VL: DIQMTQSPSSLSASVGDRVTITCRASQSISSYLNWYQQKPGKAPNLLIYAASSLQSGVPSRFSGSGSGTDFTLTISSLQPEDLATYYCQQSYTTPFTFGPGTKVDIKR", "s⁻¹", 0.00335),
    ("H4H13541P (antibody, human IgG4 S228P, kappa, V domains shown, anti-IL2Rγ monoclonal antibody expressed with human IgG4 Fc) VH: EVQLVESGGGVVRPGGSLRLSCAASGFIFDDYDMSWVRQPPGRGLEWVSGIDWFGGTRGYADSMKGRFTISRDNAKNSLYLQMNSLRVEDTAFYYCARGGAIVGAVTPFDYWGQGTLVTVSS VL: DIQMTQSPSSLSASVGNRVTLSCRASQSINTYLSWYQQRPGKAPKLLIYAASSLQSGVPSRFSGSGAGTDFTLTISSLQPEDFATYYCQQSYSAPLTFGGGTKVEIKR", "s⁻¹", 0.0015),
    ("H4H12871P (antibody, human IgG4 S228P, kappa, V domains shown, anti-IL2Rγ monoclonal antibody expressed with human IgG4 Fc; also called REGN9434) VH: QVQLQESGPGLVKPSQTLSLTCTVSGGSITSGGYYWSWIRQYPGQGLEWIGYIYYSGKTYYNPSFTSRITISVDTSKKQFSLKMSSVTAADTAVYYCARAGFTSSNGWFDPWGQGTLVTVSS VL: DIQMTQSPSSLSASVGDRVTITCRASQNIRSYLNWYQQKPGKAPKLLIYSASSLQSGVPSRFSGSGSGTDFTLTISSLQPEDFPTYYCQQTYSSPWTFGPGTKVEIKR", "s⁻¹", 0.00227),
    ("H4H12890P (antibody, human IgG4 S228P, kappa, V domains shown, anti-IL2Rγ monoclonal antibody expressed with human IgG4 Fc) VH: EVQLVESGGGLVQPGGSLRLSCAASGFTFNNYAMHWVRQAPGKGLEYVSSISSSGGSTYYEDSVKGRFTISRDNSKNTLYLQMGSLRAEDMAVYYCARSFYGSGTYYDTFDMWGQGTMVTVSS VL: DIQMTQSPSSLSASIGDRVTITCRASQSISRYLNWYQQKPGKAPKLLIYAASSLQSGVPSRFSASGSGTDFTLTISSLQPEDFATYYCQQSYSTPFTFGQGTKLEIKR", "s⁻¹", 0.00276),
    ("H4H12858P (antibody, human IgG4 S228P, kappa, V domains shown, anti-IL2Rγ monoclonal antibody expressed with human IgG4 Fc; also called REGN9433) VH: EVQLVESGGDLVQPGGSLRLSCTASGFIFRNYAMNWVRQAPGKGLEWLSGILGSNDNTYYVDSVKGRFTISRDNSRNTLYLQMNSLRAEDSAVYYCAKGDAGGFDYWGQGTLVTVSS VL: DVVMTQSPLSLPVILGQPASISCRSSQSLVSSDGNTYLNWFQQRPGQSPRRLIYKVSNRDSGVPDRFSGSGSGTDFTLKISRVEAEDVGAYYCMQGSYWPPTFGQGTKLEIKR", "s⁻¹", 0.00155),
    ("H4H13538P (antibody, human IgG4 S228P, kappa, V domains shown, anti-IL2Rγ monoclonal antibody expressed with human IgG4 Fc) VH: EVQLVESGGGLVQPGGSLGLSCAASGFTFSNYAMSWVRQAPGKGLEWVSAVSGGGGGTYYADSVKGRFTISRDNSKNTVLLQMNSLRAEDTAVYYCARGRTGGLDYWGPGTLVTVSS VL: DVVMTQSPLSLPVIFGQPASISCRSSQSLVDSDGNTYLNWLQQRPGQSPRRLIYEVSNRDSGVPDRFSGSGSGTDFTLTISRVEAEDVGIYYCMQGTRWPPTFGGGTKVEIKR", "s⁻¹", 0.00139),
    ("H4H12886P (antibody, human IgG4 S228P, kappa, V domains shown, anti-IL2Rγ monoclonal antibody expressed with human IgG4 Fc) VH: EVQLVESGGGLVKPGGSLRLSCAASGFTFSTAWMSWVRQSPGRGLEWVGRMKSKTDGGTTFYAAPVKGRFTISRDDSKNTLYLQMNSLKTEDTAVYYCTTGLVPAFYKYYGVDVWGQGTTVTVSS VL: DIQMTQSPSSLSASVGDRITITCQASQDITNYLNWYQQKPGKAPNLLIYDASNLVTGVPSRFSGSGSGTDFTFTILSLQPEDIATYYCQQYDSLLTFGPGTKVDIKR", "s⁻¹", 0.00197),
    ("H4H12900P (antibody, human IgG4 S228P, kappa, V domains shown, anti-IL2Rγ monoclonal antibody expressed with human IgG4 Fc) VH: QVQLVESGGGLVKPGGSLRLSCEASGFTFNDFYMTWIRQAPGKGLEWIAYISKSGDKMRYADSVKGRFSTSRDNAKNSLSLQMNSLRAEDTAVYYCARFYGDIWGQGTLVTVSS VL: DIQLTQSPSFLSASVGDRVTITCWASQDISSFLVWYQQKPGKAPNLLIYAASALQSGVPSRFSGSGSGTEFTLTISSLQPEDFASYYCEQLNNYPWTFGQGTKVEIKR", "s⁻¹", 0.00277),
    ("H4H12899P (antibody, human IgG4 S228P, kappa, V domains shown, anti-IL2Rγ monoclonal antibody expressed with human IgG4 Fc) VH: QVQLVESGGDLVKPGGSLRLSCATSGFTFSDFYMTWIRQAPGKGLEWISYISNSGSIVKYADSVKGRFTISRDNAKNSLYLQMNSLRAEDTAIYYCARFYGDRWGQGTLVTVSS VL: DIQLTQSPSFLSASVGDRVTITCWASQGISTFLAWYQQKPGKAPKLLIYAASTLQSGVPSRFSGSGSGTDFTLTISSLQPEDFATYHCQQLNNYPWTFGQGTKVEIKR", "s⁻¹", 0.00211),
    ("H4H12874P (antibody, human IgG4 S228P, kappa, V domains shown, anti-IL2Rγ monoclonal antibody expressed with human IgG4 Fc) VH: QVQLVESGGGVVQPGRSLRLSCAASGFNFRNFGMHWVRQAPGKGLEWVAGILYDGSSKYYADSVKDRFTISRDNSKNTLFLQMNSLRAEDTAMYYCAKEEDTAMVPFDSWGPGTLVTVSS VL: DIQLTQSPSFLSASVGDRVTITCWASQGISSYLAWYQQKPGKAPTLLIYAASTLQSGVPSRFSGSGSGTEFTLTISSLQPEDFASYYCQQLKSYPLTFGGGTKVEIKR", "s⁻¹", 0.00255),
]
